# targetOfAssay: Recombinant human His-tagged Kat6a protein (amino acids 194-810) (Homo sapiens)
# Construct: Kat6a protein (amino acids 194-810); His
# Sequence (Q92794 194-810): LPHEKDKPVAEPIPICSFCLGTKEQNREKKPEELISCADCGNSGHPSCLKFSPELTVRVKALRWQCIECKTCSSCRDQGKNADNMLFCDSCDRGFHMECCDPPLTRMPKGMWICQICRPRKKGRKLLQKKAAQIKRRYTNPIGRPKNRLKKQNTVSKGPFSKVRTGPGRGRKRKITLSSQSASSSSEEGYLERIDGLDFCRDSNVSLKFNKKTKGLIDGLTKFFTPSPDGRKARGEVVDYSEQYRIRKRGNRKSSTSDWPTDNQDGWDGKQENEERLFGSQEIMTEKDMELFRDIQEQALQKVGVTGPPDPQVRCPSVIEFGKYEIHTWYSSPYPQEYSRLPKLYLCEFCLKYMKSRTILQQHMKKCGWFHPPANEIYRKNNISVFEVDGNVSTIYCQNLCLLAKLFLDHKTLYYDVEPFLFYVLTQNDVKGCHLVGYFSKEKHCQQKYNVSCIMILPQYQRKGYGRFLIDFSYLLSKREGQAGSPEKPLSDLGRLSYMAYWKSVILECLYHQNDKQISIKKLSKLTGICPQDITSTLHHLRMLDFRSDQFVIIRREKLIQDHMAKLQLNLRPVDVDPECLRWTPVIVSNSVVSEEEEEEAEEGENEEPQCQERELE
# test: Kat6a activity assay (TR-FRET, acetylation of Histone-H4-derived peptide)
# particulars: 60 mins at 22° C., 220 nM H4 peptide, 600 nM Acetyl Coenzyme A, read-out: KAT6A - DPF/HAT domain IC50 [mol/l] (arithmetic mean)
Consider the following compounds; for each one, report its pIC50.
One number for each entry, as −log10 of the molar value.

# example entries with known answers
1) O=C(NS(=O)(=O)c1ccccc1-c1ccccc1)c1cc2c(F)cc(N3CCC3)cc2o1 [Example 20]    7.47
2) CCS(=O)(=O)c1nc2ccccn2c1S(=O)(=O)NC(=O)c1cc2c(F)cc(N3CCC3)cc2o1    6.29
3) CCOc1cccc(OCc2ccccc2)c1S(=O)(=O)NC(=O)c1cc2c(F)cc(N3CCC3)cc2o1    8.38

Each compound below has a reported value. Please supply its pIC50.
1. CCc1ccc2cccc(S(=O)(=O)NC(=O)c3cc4c(F)cc(N5CCC5)cc4o3)c2n1
2. O=C(NS(=O)(=O)c1ncccc1Br)c1cc2c(F)cc(N3CCC3)cc2o1
3. CC(C)c1ccc(OC2CCC2)c(S(=O)(=O)NC(=O)c2cc3c(F)cc(N4CCC4)cc3o2)c1
4. CCc1cccc(OCC2CC2)c1S(=O)(=O)NC(=O)c1cc2c(F)cc(N3CCC3)cc2o1

1. 7.80
2. 6.49
3. 8.11
4. 7.13

Each compound below has a reported value. Please supply its pIC50.
1. Cc1ccc2cccc(S(=O)(=O)NC(=O)c3cc4c(F)cc(N5CCC5)cc4o3)c2n1
2. O=C(NS(=O)(=O)c1cccc2ccc(Cl)nc12)c1cc2c(F)cc(N3CCC3)cc2o1
3. CC(C)Nc1ccc(Cl)cc1S(=O)(=O)NC(=O)c1cc2c(F)cc(N3CCC3)cc2o1
4. O=C(NS(=O)(=O)c1csc2ccccc12)c1cc2c(F)cc(N3CCC3)cc2o1
5. CCOc1ccccc1S(=O)(=O)NC(=O)c1cc2c(F)cc(N3CCC3)cc2o1 [Example 2]
6. COc1ccc2snnc2c1S(=O)(=O)NC(=O)c1cc2c(F)cc(N3CCC3)cc2o1

[7.86, 7.85, 7.17, 7.45, 7.34, 7.26]

* * *

# System: ESR1 transcription in MVLN cells
# test: MVLN reporter assay: repression of ESR1 transcription (luciferase signal)
# Type: cell-based
# particulars: Homo sapiens, MVLN, 24 h, luciferase signal after 24 h, read-out: MVLN reporter assay, IC50 [M] (arithmetic mean)
reportedMetric: IC50 (M)
Give bare numbers, in M.

Each compound below has a reported value. Please supply its IC50.
1. COc1ccc(-c2cnn(C)c2)cc1S(=O)(=O)NC(=O)c1cc2c(F)cc(N3CCC3)cc2o1
2. CCc1noc(-c2ccccc2S(=O)(=O)NC(=O)c2cc3c(F)cc(N4CCC4)cc3o2)n1
3. Cc1cccc(O)c1S(=O)(=O)NC(=O)c1cc2c(F)cc(N3CCC3)cc2o1
4. O=C(NS(=O)(=O)c1ccccc1CCC(F)(F)F)c1cc2c(F)cc(N3CCC3)cc2o1
5. CC(C)c1cc(Br)ccc1S(=O)(=O)NC(=O)c1cc2c(F)cc(N3CCC3)cc2o1
6. CCc1ccc(OC2CCCC2)c(S(=O)(=O)NC(=O)c2cc3c(F)cc(N4CCC4)cc3o2)c1

["5.49e-07", "1.01e-06", "8e-06", "1.55e-06", "7.07e-07", "5.25e-08"]

Each compound below has a reported value. Please supply its IC50.
1. CN(C)c1cccc2c(S(=O)(=O)NC(=O)c3cc4c(F)cc(N5CCC5)cc4o3)cccc12
2. CN(C)S(=O)(=O)c1ccc(Cl)c(S(=O)(=O)NC(=O)c2cc3c(F)cc(N4CCC4)cc3o2)c1
3. CN(C)c1ccccc1S(=O)(=O)NC(=O)c1cc2c(F)cc(N3CCC3)cc2o1
4. Cn1nc(S(=O)(=O)NC(=O)c2cc3c(F)cc(N4CCC4)cc3o2)c2ccc(C(F)(F)F)nc21
5. CCc1cccc(OCc2ccccc2)c1S(=O)(=O)NC(=O)c1cc2c(F)cc(N3CCC3)cc2o1
6. Cc1cccc(OC(C)C)c1S(=O)(=O)NC(=O)c1cc2c(F)cc(N3CCC3)cc2o1
7. CC(C)(C)c1ccc(OCC2CC2)c(S(=O)(=O)NC(=O)c2cc3c(F)cc(N4CCC4)cc3o2)c1
8. Cc1nn(C(C)C)cc1S(=O)(=O)NC(=O)c1cc2c(F)cc(N3CCC3)cc2o1

["1e-05", "1.89e-05", "1.45e-07", "7.93e-06", "3.1e-07", "3.33e-07", "5.37e-08", "3.08e-07"]

State the recorded IC50 for this entry: CC(C)c1ccc(OCC2CC2)c(S(=O)(=O)NC(=O)c2cc3c(F)cc(N4CCC4)cc3o2)c1 2.43e-08
